The measured values listed here are drawn from paper PMC2888050.

targetDesc: PP2A (Bos taurus)
Sequence (P67774 whole entry): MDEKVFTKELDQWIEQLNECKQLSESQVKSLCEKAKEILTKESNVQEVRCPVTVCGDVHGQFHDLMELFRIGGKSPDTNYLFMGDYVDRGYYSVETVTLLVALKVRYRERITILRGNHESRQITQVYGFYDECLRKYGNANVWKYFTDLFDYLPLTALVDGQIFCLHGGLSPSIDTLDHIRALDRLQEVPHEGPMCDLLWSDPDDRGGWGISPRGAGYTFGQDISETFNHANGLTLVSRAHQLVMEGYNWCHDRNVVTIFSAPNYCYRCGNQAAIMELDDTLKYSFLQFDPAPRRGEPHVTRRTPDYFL
measureName: IC50

Please fill in: IC50 reported for O=C(O)c1cc(=O)c2c(OCC(O)COc3cccc4oc(C(=O)O)cc(=O)c34)cccc2o1 [cromoglycate] = ~1.7 nM
